System: Acro S1 spike protein (SARS-CoV-2) (SARS-CoV-2, UniProt P0DTC2 16-685)
Assay info: SPR (Carterra LSA); […]; 1:1 model; […]
pKd: −log10 of the molar value.
# reported pKd; entries follow

{"Binder": "Antibody 1-17 (Fc fusion) EVQLVESGGGLVQPGGSLRLSCAASGRTIVPYTMGWFRQAPGKEREEVAAISTGGGGTYYADSVKGRFTISADNSKNTAYLQMNSLKPEDTAVYYCAVDGPFGWGQGTLVTVSS", "pKd": 8.29}
{"Binder": "Antibody 1-15 (Fc fusion) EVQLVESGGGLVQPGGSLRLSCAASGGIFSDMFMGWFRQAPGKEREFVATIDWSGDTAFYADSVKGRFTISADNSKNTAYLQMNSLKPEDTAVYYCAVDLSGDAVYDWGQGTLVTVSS", "pKd": 7.98}
{"Binder": "Antibody 1-2 (Fc fusion) EVQLVESGGGLVQPGGSLRLSCAASGGSEYSYSTFSSFVMGWFRQAPGKERELVASISWSGGHTFYADSVKGRFTISADNSKNTAYLQMNSLKPEDTAVYYCAAYLRGPYYSSFYDSTKYEWGQGTLVTVSS", "pKd": 8.62}
{"Binder": "Antibody 1-7 (Fc fusion) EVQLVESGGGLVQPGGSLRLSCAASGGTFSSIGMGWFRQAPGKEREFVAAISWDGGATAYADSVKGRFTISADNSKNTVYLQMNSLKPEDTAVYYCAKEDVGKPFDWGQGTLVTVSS", "pKd": 8.88}
{"Binder": "Antibody 1-1 (Fc fusion) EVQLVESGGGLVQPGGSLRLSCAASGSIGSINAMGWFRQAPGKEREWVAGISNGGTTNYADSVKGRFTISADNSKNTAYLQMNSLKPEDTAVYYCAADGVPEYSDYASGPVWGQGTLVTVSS", "pKd": 9.17}
{"Binder": "Antibody 1-10 (Fc fusion) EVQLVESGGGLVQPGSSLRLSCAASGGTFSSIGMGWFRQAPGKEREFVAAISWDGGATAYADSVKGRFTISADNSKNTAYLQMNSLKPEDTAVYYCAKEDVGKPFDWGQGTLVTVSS", "pKd": 8.71}
{"Binder": "Antibody 1-13 (Fc fusion) EVQLVESGGGLVQPGGSLRLSCAASGRTTFSSYTMGWFRQAPGKEREFVASITRSGVLNYADSVKGRFTISADNSKNTAYLQMNSLKPEDTAVYYCAKEDVGKPFDWGQGTLVTVSS", "pKd": 7.74}
